Biological target: T1, human ROR1 (hROR1) on cells (human, UniProt Q01973 30-937)
T1 construct: whole, on cells; the cell line is named under assay; also called HEK293T-hROR1; 293T-hROR1
T1 sequence (Q01973 30-937): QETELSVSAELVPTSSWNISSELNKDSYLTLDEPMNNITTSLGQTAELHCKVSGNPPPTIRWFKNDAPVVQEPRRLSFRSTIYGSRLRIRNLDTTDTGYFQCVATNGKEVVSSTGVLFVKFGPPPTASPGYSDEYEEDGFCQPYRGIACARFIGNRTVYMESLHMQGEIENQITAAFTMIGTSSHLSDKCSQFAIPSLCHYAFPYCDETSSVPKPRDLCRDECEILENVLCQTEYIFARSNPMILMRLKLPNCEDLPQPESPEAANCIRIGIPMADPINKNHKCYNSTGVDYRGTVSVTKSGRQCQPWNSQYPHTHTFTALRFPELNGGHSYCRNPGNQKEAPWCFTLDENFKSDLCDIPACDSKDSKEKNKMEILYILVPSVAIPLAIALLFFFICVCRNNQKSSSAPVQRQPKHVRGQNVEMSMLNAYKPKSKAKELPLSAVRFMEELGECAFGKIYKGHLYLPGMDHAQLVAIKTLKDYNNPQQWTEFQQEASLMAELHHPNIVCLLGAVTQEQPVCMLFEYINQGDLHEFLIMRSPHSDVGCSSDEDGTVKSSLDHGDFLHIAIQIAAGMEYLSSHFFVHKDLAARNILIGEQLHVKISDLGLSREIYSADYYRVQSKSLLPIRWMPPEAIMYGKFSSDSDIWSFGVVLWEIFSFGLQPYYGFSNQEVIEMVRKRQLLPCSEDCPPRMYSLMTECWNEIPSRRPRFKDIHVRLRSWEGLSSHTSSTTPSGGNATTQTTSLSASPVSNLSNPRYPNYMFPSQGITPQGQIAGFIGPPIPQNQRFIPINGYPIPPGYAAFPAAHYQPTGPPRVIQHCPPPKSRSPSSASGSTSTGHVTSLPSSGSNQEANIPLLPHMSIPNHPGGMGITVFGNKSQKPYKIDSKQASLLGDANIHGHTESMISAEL
Test: FACS, HEK293T-hROR1 cells; further: test concentration or dose not given here
parameter: MFI (MFI)
Return type: number; implicit unit MFI.

Below: 4 binders and their reported MFI.
Requested read-out: MFI. Entry: PR002574 (antibody, human IgG1, kappa, V domains shown, PR001364 variant: VH D54E; hIgG1; also called anti-ROR1 1015M3-D8(H: D54E) hIgG1) VH: EVQLLESGGGVVQPGRSLRLSCAASGFTFSSFGMHWVRQAPGKGLEWVAVIWYEGSDKDYADSVKGRFTISRDTSKNTLYLQMNSLRAEDTAVYYCAREQARSFDLWGRGTLVTVSS VL: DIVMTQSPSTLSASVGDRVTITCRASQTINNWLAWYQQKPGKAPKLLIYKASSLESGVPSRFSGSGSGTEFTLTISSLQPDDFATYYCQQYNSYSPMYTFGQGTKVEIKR
45300

Requested read-out: MFI. Entry: PR002578 (antibody, human IgG1, kappa, V domains shown, PR001364 variant: VH G55A, VL N92Q; hIgG1; also called anti-ROR1 1015M3-D8(H: G55A; L: N92Q) hIgG1) VH: EVQLLESGGGVVQPGRSLRLSCAASGFTFSSFGMHWVRQAPGKGLEWVAVIWYDASDKDYADSVKGRFTISRDTSKNTLYLQMNSLRAEDTAVYYCAREQARSFDLWGRGTLVTVSS VL: DIVMTQSPSTLSASVGDRVTITCRASQTINNWLAWYQQKPGKAPKLLIYKASSLESGVPSRFSGSGSGTEFTLTISSLQPDDFATYYCQQYQSYSPMYTFGQGTKVEIKR
45100

Requested read-out: MFI. Entry: PR002587 (antibody, human IgG1, kappa, V domains shown, PR001369 variant: VH G55A, VL S93A; hIgG1; also called anti-ROR1 1015M3-H10(H: G55A; L: S93A) hIgG1) VH: QVQLVESGGGVVQPGRSLRLSCAASGFTFSNYGIHWVRQAPGKGLEWVAIMWYDASNTDYADSVKGRFTISRDTSKNTLFLQMNSLRAEDTAVYYCAREQARSFDLWGRGTLVTVSS VL: DIVMTQSPSTLSASVGDRVTITCRASQTINNWLAWYQQKPGKAPKLLIYKASSLESGVPSRFSGSGSGTEFTLTISSLQPDDFATYYCQQYNAYSPMYTFGQGTKVEIKR
41500

Requested read-out: MFI. Entry: PR002585 (antibody, human IgG1, kappa, V domains shown, PR001369 variant: VH G55A; hIgG1; also called anti-ROR1 1015M3-H10(H: G55A) hIgG1) VH: QVQLVESGGGVVQPGRSLRLSCAASGFTFSNYGIHWVRQAPGKGLEWVAIMWYDASNTDYADSVKGRFTISRDTSKNTLFLQMNSLRAEDTAVYYCAREQARSFDLWGRGTLVTVSS VL: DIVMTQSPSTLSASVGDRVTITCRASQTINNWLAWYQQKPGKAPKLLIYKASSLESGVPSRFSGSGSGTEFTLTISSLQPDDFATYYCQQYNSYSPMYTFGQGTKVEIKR
32700

Field: next binder
Requested read-out: MFI. Entry: PR001369 (antibody, human IgG1, kappa, V domains shown, fully human IgG1, kappa; also called anti-ROR1 1015M3-H10 hIgG1; PR001369(WT)) VH: QVQLVESGGGVVQPGRSLRLSCAASGFTFSNYGIHWVRQAPGKGLEWVAIMWYDGSNTDYADSVKGRFTISRDTSKNTLFLQMNSLRAEDTAVYYCAREQARSFDLWGRGTLVTVSS VL: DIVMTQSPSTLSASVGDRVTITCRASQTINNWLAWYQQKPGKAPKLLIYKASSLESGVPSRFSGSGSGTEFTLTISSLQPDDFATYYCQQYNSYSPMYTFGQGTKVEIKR
43800
